conditions: in methanol, 323.15 K
TEST READOUT: solubility (mole fraction)

>>> print(df.to_string())
          structure_smiles                test_readout  readout_number
0  CCOC(=O)[C@@H]1CSCN1.Cl  solubility (mole fraction)           0.142

---

details: in isobutanol, 283.15 K
TEST READOUT: solubility (mole fraction)

          structure_smiles                test_readout  readout_number
0  CCOC(=O)[C@@H]1CSCN1.Cl  solubility (mole fraction)         0.00153

---

settings: in 1,4-dioxane, 323.15 K
TEST READOUT: solubility (mole fraction)

>>> print(df.to_string())
          structure_smiles                test_readout  readout_number
0  CCOC(=O)[C@@H]1CSCN1.Cl  solubility (mole fraction)         0.00266

---

settings: in acetone, 323.15 K
TEST READOUT: solubility (mole fraction)

>>> df
          structure_smiles   result
0  CCOC(=O)[C@@H]1CSCN1.Cl  0.00187

---

settings: in 2-butanone, 283.15 K
TEST READOUT: solubility (mole fraction)

>>> print(df.to_string())
          structure_smiles  readout_number
0  CCOC(=O)[C@@H]1CSCN1.Cl         4.1e-05

---

conditions: in ethanol, 323.15 K
TEST READOUT: solubility (mole fraction)

          structure_smiles                test_readout  result
0  CCOC(=O)[C@@H]1CSCN1.Cl  solubility (mole fraction)  0.0473

---

conditions: in acetonitrile, 313.15 K
TEST READOUT: solubility (mole fraction)

>>> print(df.to_string())
          structure_smiles  readout_number
0  CCOC(=O)[C@@H]1CSCN1.Cl         0.00451

---

settings: in n-butanol, 293.15 K
TEST READOUT: solubility (mole fraction)

In [3]: df
Out[3]:
          structure_smiles                test_readout  readout_number
0  CCOC(=O)[C@@H]1CSCN1.Cl  solubility (mole fraction)         0.00427

---

conditions: in ethyl acetate, 313.15 K
TEST READOUT: solubility (mole fraction)

>>> df
          structure_smiles                test_readout  readout_number
0  CCOC(=O)[C@@H]1CSCN1.Cl  solubility (mole fraction)        0.000273

---

details: in dichloromethane, 303.15 K
TEST READOUT: solubility (mole fraction)

          structure_smiles  readout_number
0  CCOC(=O)[C@@H]1CSCN1.Cl          0.0187

---

details: in isopropanol, 283.15 K
TEST READOUT: solubility (mole fraction)

          structure_smiles  readout_number
0  CCOC(=O)[C@@H]1CSCN1.Cl         0.00271

---

conditions: in n-propanol, 303.15 K
TEST READOUT: solubility (mole fraction)

>>> df
          structure_smiles                test_readout  readout_number
0  CCOC(=O)[C@@H]1CSCN1.Cl  solubility (mole fraction)           0.012

---

settings: in methanol, 293.15 K
TEST READOUT: solubility (mole fraction)

>>> print(df.to_string())
          structure_smiles                test_readout  readout_number
0  CCOC(=O)[C@@H]1CSCN1.Cl  solubility (mole fraction)          0.0619

---

conditions: in n-propanol, 293.15 K
TEST READOUT: solubility (mole fraction)

In [3]: df
Out[3]:
          structure_smiles  readout_number
0  CCOC(=O)[C@@H]1CSCN1.Cl          0.0078

---

conditions: in ethyl acetate, 303.15 K
TEST READOUT: solubility (mole fraction)

In [3]: df
Out[3]:
          structure_smiles                test_readout  readout_number
0  CCOC(=O)[C@@H]1CSCN1.Cl  solubility (mole fraction)        0.000215

---

conditions: in isopropanol, 313.15 K
TEST READOUT: solubility (mole fraction)

>>> print(df.to_string())
          structure_smiles  readout_number
0  CCOC(=O)[C@@H]1CSCN1.Cl         0.00807

---

conditions: in 2-butanone, 313.15 K
TEST READOUT: solubility (mole fraction)

>>> print(df.to_string())
          structure_smiles  readout_number
0  CCOC(=O)[C@@H]1CSCN1.Cl        0.000298

---

settings: in ethanol, 283.15 K
TEST READOUT: solubility (mole fraction)

          structure_smiles  readout_number
0  CCOC(=O)[C@@H]1CSCN1.Cl         0.00937

---

conditions: in sec-butanol, 323.15 K
TEST READOUT: solubility (mole fraction)

          structure_smiles                test_readout  readout_number
0  CCOC(=O)[C@@H]1CSCN1.Cl  solubility (mole fraction)         0.00936

---

settings: in isobutanol, 303.15 K
TEST READOUT: solubility (mole fraction)

In [3]: df
Out[3]:
          structure_smiles                test_readout  readout_number
0  CCOC(=O)[C@@H]1CSCN1.Cl  solubility (mole fraction)         0.00495

---

details: in dichloromethane, 288.15 K
TEST READOUT: solubility (mole fraction)

          structure_smiles                test_readout  readout_number
0  CCOC(=O)[C@@H]1CSCN1.Cl  solubility (mole fraction)            0.01

---

settings: in n-propanol, 283.15 K
TEST READOUT: solubility (mole fraction)

>>> df
          structure_smiles                test_readout  readout_number
0  CCOC(=O)[C@@H]1CSCN1.Cl  solubility (mole fraction)         0.00489

---

conditions: in dichloromethane, 298.15 K
TEST READOUT: solubility (mole fraction)

In [3]: df
Out[3]:
          structure_smiles  readout_number
0  CCOC(=O)[C@@H]1CSCN1.Cl          0.0157

---

details: in n-butanol, 303.15 K
TEST READOUT: solubility (mole fraction)

>>> print(df.to_string())
          structure_smiles  readout_number
0  CCOC(=O)[C@@H]1CSCN1.Cl         0.00829

---

settings: in methyl acetate, 283.15 K
TEST READOUT: solubility (mole fraction)

In [3]: df
Out[3]:
          structure_smiles                test_readout  readout_number
0  CCOC(=O)[C@@H]1CSCN1.Cl  solubility (mole fraction)         3.8e-05

---

conditions: in 1,4-dioxane, 293.15 K
TEST READOUT: solubility (mole fraction)

>>> df
          structure_smiles  readout_number
0  CCOC(=O)[C@@H]1CSCN1.Cl        0.000593

---

settings: in ethyl acetate, 323.15 K
TEST READOUT: solubility (mole fraction)

          structure_smiles  readout_number
0  CCOC(=O)[C@@H]1CSCN1.Cl        0.000345

---

details: in water, 293.15 K
TEST READOUT: solubility (mole fraction)

>>> print(df.to_string())
          structure_smiles  readout_number
0  CCOC(=O)[C@@H]1CSCN1.Cl           0.104

---

settings: in sec-butanol, 303.15 K
TEST READOUT: solubility (mole fraction)

In [3]: df
Out[3]:
          structure_smiles                test_readout  readout_number
0  CCOC(=O)[C@@H]1CSCN1.Cl  solubility (mole fraction)         0.00182

---

conditions: in 2-butanone, 303.15 K
TEST READOUT: solubility (mole fraction)

In [3]: df
Out[3]:
          structure_smiles                test_readout  readout_number
0  CCOC(=O)[C@@H]1CSCN1.Cl  solubility (mole fraction)         0.00018

---

conditions: in methyl acetate, 323.15 K
TEST READOUT: solubility (mole fraction)

In [3]: df
Out[3]:
          structure_smiles                test_readout  readout_number
0  CCOC(=O)[C@@H]1CSCN1.Cl  solubility (mole fraction)        0.000276

---

conditions: in methyl acetate, 293.15 K
TEST READOUT: solubility (mole fraction)

>>> df
          structure_smiles  readout_number
0  CCOC(=O)[C@@H]1CSCN1.Cl           7e-05

---

conditions: in acetonitrile, 323.15 K
TEST READOUT: solubility (mole fraction)

          structure_smiles  readout_number
0  CCOC(=O)[C@@H]1CSCN1.Cl         0.00664
